Target or test system: T1, corticotropin-releasing hormone (CRH) peptide (human and mouse (same sequence), not fully specified)
T1 peptide: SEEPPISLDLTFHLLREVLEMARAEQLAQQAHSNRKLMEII
Test details: cell-based or functional assay
Property: mCrhr1 Luciferase Reporter Assay IC50 (nM)
Record the value in nM, omitting the unit from your answer.

Q. Which mCrhr1 Luciferase Reporter Assay IC50 value belongs to PR302341-54 (antibody, human IgG1, kappa, V domains shown) VH: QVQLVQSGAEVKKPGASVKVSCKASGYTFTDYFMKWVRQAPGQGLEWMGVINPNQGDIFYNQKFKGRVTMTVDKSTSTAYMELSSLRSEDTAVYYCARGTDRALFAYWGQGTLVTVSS VL: DVVMTQTPLSSPVTLGQPASISCRSGQSIVHSSGNTYLEWYQQRPGQPPRLLIYKVSNRFSGVPDRFSGSGAGTDFTLKISRVEAEDLGVYYCFQGSHIPWTFGGGTKVEIKR ?
A. 4.09

Q. Which mCrhr1 Luciferase Reporter Assay IC50 value belongs to PR302341-46 (antibody, human IgG1, kappa, V domains shown) VH: QVQLVQSGAEVKKPGASVKVSCKASGYTFTDYFMKWVRQAPGQGLEWMGVINPNNADIFYNQKFKGRVTMTVDKSTSTAYMELSSLRSEDTAVYYCARGTDRALFAYWGQGTLVTVSS VL: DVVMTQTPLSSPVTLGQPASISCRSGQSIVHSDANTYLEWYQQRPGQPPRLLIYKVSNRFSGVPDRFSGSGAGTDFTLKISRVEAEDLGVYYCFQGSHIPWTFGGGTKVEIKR ?
A. 1.52

Q. Which mCrhr1 Luciferase Reporter Assay IC50 value belongs to PR302341-34 (antibody, human IgG1, kappa, V domains shown) VH: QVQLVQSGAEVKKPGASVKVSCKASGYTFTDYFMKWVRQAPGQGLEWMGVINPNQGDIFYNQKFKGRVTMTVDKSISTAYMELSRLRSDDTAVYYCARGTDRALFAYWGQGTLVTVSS VL: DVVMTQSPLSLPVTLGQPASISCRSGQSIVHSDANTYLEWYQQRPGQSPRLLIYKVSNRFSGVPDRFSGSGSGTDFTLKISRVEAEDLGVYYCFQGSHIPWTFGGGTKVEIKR ?
A. 2.19

Q. Which mCrhr1 Luciferase Reporter Assay IC50 value belongs to PR302341-43 (antibody, human IgG1, kappa, V domains shown) VH: QVQLVQSGAEVKKPGASVKVSCKASGYTFTDYFMKWVRQAPGQGLEWMGVINPNNADIFYNQKFKGRVTMTVDKSTSTAYMELSSLRSEDTAVYYCARGTDRALFAYWGQGTLVTVSS VL: DVVMTQTPLSSPVTLGQPASISCRSGQSIVHSDGNTYLEWYQQRPGQPPRLLIYKVSNRFSGVPDRFSGSGAGTDFTLKISRVEAEDLGVYYCFQGSHIPWTFGGGTKVEIKR ?
A. 1.37

Q. Which mCrhr1 Luciferase Reporter Assay IC50 value belongs to PR302341-37 (antibody, human IgG1, kappa, V domains shown) VH: QVQLVQSGAEVKKPGASVKVSCKASGYTFTDYFMKWVRQAPGQGLEWMGVINPNSGDIFYNQKFKGRVTMTVDKSISTAYMELSRLRSDDTAVYYCARGTDRALFAYWGQGTLVTVSS VL: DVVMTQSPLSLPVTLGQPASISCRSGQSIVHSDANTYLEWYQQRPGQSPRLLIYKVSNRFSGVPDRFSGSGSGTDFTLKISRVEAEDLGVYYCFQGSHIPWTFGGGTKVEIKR ?
A. 1.29

Q. Which mCrhr1 Luciferase Reporter Assay IC50 value belongs to PR302064 (antibody, human IgG1, kappa, V domains shown, humanized variant of PR301777) VH: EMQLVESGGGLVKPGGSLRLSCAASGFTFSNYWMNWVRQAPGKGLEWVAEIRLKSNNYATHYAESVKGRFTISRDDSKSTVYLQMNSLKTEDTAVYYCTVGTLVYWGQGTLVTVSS VL: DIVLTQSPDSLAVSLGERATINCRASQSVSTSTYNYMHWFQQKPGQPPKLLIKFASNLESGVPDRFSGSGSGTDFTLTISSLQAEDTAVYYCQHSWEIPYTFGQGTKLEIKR ?
A. 4.92

Q. Which mCrhr1 Luciferase Reporter Assay IC50 value belongs to PR302341-57 (antibody, human IgG1, kappa, V domains shown) VH: QVQLVQSGAEVKKPGASVKVSCKASGYTFTDYFMKWVRQAPGQRLEWMGVINPNQGDIFYNQKFKGRVTITRDTSASTAYMELSSLRSEDTAVYYCARGTDRALFAYWGQGTLVTVSS VL: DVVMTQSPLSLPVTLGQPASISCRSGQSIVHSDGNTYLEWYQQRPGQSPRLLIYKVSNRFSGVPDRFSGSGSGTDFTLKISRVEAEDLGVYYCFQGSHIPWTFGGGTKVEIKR ?
A. 6.48

Q. Which mCrhr1 Luciferase Reporter Assay IC50 value belongs to PR302341-10 (antibody, human IgG1, kappa, V domains shown) VH: QVQLVQSGAEVKKPGASVKVSCKASGYTFTDYFMKWVRQAPGQGLEWMGVINPNNGDIFYNQKFKGRVTMTVDKSTSTAYMELSSLRSEDTAVYYCARGTDRALFAYWGQGTLVTVSS VL: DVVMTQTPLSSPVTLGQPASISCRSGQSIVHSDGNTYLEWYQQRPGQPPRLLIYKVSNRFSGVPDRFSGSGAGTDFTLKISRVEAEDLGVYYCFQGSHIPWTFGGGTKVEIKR ?
A. 1.6
